System: RXF 393 renal
Assay: NCI tumour cell line growth inhibition, 48 h; in the data active = GI50 below about 0.43 µM; inactive = the rest
Outcome codes: t for active, f for inactive

- Compound: "CCOC(=O)c1sc(NC(=O)COc2ccc(/C=C3\\CCc4cc(OC)ccc4C3=O)cc2)nc1C"
  Assigned Label: "f"
- Compound: "COc1ccc(-c2cn3ccnc3c(-c3ccc(Cl)cc3)n2)cc1"
  Assigned Label: "f"
- Compound: "CCOC(=O)/C=C/c1ccc([N+](=O)[O-])o1"
  Assigned Label: "f"
- Compound: "CC(C)(O)c1cc(Nc2cc(Oc3cn(C4CC4)nc3C3CCOCC3)ccn2)ccn1"
  Assigned Label: "f"
- Compound: "COc1ccc(CN2c3ccccc3Sc3ccccc32)cc1O"
  Assigned Label: "t"
- Compound: "C=C(CN1CCN(c2ccccn2)CC1)c1ccc(C(=O)Nc2ccccc2N)cc1"
  Assigned Label: "f"
- Compound: "N#C/C(=C/C=C/c1cccc(Cl)c1)S(=O)c1ccccc1 (configuration not stated)"
  Assigned Label: "t"
- Compound: "COc1ccc(N=c2nc3sc4cc(Cl)ccc4n3c(N)c2C#N)cc1"
  Assigned Label: "f"
- Compound: "COc1ccc(C(=O)Cn2c(C(=O)c3ccc(Cl)cc3)nc(-c3ccccc3)c2-c2ccccc2)cc1"
  Assigned Label: "f"
- Compound: "S=C(Nc1ccc(-c2nc3ccccc3s2)cc1)Nc1ccc(-c2nc3ccccc3s2)cc1"
  Assigned Label: "f"
- Compound: "O=C(OCC1=CC(=O)c2ccccc2C1=O)c1ccccc1"
  Assigned Label: "f"
- Compound: "C=C(CN1CCc2ccccc2C1)c1ccc(CCCC(=O)Nc2ccccc2N)cc1"
  Assigned Label: "f"

====

System: A498 renal
Experiment: NCI tumour cell line growth inhibition, 48 h

- Compound: "CC1(C)Cc2ccccc2C(C)(Cl)C(=O)N1 (stereo unspecified)"
  Subject Of Test: "A498 renal"
  TGI: "> 10 µM"
- Compound: "C=C1c2nc3ccccc3n2C=C(c2ccccc2)N1c1ccc(C)cc1"
  Subject Of Test: "A498 renal"
  TGI: "> 100 µM"
- Compound: "COc1c(NC(C)=O)c2ccccc2c2ccccc12"
  Subject Of Test: "A498 renal"
  TGI: "> 100 µM"
- Compound: "C/C(=N/NC(N)=S)C(CN1CCOCC1)C(C1=C(O)c2ccccc2OC1)c1ccccc1 (stereo unspecified)"
  Subject Of Test: "A498 renal"
  TGI: "> 100 µM"
- Compound: "COc1ccc(C(=O)Cn2c(C(=O)c3ccc(Cl)cc3)nc(-c3ccccc3)c2-c2ccccc2)cc1"
  Subject Of Test: "A498 renal"
  TGI: "> 100 µM"
- Compound: "N/C(=N\\N=C/c1c(O)cc(O)cc1O)NO"
  Subject Of Test: "A498 renal"
  TGI: "> 100 µM"
- Compound: "CCC1OC2(C)CC(C#N)(C#N)C1(C#N)C(=N)O2 (stereo unspecified)"
  Subject Of Test: "A498 renal"
  TGI: "> 100 µM"
- Compound: "N#Cc1nc(CN2C(=O)c3ccccc3C2=O)oc1N"
  Subject Of Test: "A498 renal"
  TGI: "> 100 µM"
- Compound: "O=C(OCC1=CC(=O)c2ccccc2C1=O)c1ccccc1"
  Subject Of Test: "A498 renal"
  TGI: "36.8 µM"
- Compound: "CC(Cl)(CCC(Cl)C(C)(C)Cl)C(=O)CBr (stereo unspecified)"
  Subject Of Test: "A498 renal"
  TGI: "31.1 µM"
- Compound: "O=Cn1c2ccccc2c2ccccc21"
  Subject Of Test: "A498 renal"
  TGI: "> 100 µM"
- Compound: "Cc1nc(Nc2ccc(Cl)cc2)sc1C(=O)Nc1cccc2c(=O)[nH][nH]c(=O)c12"
  Subject Of Test: "A498 renal"
  TGI: "59.4 µM"
- Compound: "CCOC1=C/C(=N\\Nc2ccc([N+](=O)[O-])cc2)CCC1"
  Subject Of Test: "A498 renal"
  TGI: "> 100 µM"
- Compound: "CC12CC(c3ccccc3O1)C(C(=O)Nc1nccs1)C(=O)N2 (stereo unspecified)"
  Subject Of Test: "A498 renal"
  TGI: "> 100 µM"
- Compound: "COc1ccc(-c2cn3ccnc3c(-c3ccc(Cl)cc3)n2)cc1"
  Subject Of Test: "A498 renal"
  TGI: "9.87 µM"
- Compound: "COc1ccc(NCn2nc(CCCCCCCCc3nn(CNc4ccc(OC)cc4)c(=S)o3)oc2=S)cc1"
  Subject Of Test: "A498 renal"
  TGI: "> 100 µM"
- Compound: "CSCSCC(CO)NC(=O)/C=C\\c1c(C)[nH]c(=O)[nH]c1=O (stereo unspecified)"
  Subject Of Test: "A498 renal"
  TGI: "229 µM"
- Compound: "CSC(=S)NCc1cn(C)c2ccccc12"
  Subject Of Test: "A498 renal"
  TGI: "29.2 µM"
- Compound: "C/C(CC(O)(C(F)(F)F)C(F)(F)F)=N\\O"
  Subject Of Test: "A498 renal"
  TGI: "> 10 µM"
- Compound: "Fc1ccc(-c2ncn(C3CCNCC3)c2-c2ccnc(Oc3ccc(Cl)cc3)n2)cc1"
  Subject Of Test: "A498 renal"
  TGI: "21.4 µM"
- Compound: "C/C(=N\\Nc1nc2cc(F)ccc2s1)c1ccccn1"
  Subject Of Test: "A498 renal"
  TGI: "> 100 µM"
- Compound: "C[C@]12CC[C@H]3[C@@H](CC=C4C[C@@H](O)CC[C@@]43C)[C@@H]1C/C(=C\\c1ccc([N+](=O)[O-])cc1)[C@@H]2O"
  Subject Of Test: "A498 renal"
  TGI: "42.4 µM"
- Compound: "O=S1(=O)N=C(SCc2c[nH]c3ccccc23)N(c2ccccc2)c2ccncc21"
  Subject Of Test: "A498 renal"
  TGI: "82.2 µM"
- Compound: "COc1cccc(C2C(C#N)=C(N)Oc3cc(OCCCCCC[P+](c4ccccc4)(c4ccccc4)c4ccccc4)ccc32)c1 (stereo unspecified)"
  Subject Of Test: "A498 renal"
  TGI: "2.45 µM"
- Compound: "COc1ccc(N=C(C)C(C)=Nc2ccc(OC)cc2)cc1"
  Subject Of Test: "A498 renal"
  TGI: "> 100 µM"
- Compound: "Cc1noc(-c2ccc(C(=O)O)[nH]2)c1Br"
  Subject Of Test: "A498 renal"
  TGI: "> 100 µM"
- Compound: "Nc1ccccc1SC(/C=C/NNC1=NC(c2ccccc2)C(c2ccccc2)=NN1)c1ccccc1 (stereo unspecified)"
  Subject Of Test: "A498 renal"
  TGI: "36.8 µM"
- Compound: "O=[N+]([O-])/C(Cl)=C(\\NCCO)C(Cl)=C(Cl)Cl"
  Subject Of Test: "A498 renal"
  TGI: "> 100 µM"
- Compound: "COC(=O)C1=C(O)c2cc(OC)c(OC)c(OC)c2C(c2ccc3c(c2)OCO3)[C@@H]1C(=O)OC (stereo partly specified)"
  Subject Of Test: "A498 renal"
  TGI: "19.2 µM"
- Compound: "Oc1c(NCn2nc(CCCCCCCCc3nn(CNc4ccc5ccccc5c4O)c(=S)o3)oc2=S)ccc2ccccc12"
  Subject Of Test: "A498 renal"
  TGI: "> 100 µM"
- Compound: "COc1ccc2c(c1)[n+](=O)c(/C=C/C(=O)c1cc(OC)c(OC)c(OC)c1)c(C)n2[O-]"
  Subject Of Test: "A498 renal"
  TGI: "54.2 µM"
- Compound: "CC(=O)/C(=N\\N=C(N)N)c1ccccc1"
  Subject Of Test: "A498 renal"
  TGI: "> 100 µM"
- Compound: "C[C@]12CC[C@H](OC(=O)Nc3ccccc3)CC1=CC[C@@H]1C2CC[C@]2(C)/C(=N/OC(=O)Nc3ccccc3)CCC12 (stereo partly specified)"
  Subject Of Test: "A498 renal"
  TGI: "> 100 µM"
- Compound: "CC(=O)N1CCOC12N=NC(C)(C)O2 (stereo unspecified)"
  Subject Of Test: "A498 renal"
  TGI: "> 100 µM"
- Compound: "Oc1ccc(Nc2nc(Cl)c3[nH]cnc3n2)cc1"
  Subject Of Test: "A498 renal"
  TGI: "> 100 µM"
- Compound: "COC1OC(C)/C(=N/O)C2OC(C)(C)OC12 (stereo unspecified)"
  Subject Of Test: "A498 renal"
  TGI: "> 100 µM"

====

Recorded TGI for the following compounds
System: 786-0 renal
Experiment: NCI tumour cell line growth inhibition, 48 h
Where a SMILES comes first, the peptide text is derived from it. Bridges are numbered along the chain shown (N, C = ends).
Endpoint Label: TGI

- Compound: "COC(=O)c1c(CC(=O)OC(C)C)cc2n(c1=O)Cc1c-2nc2ccccc2c1OC"
  Value Observed: "> 100 µM"
- Compound: "CC(C)(C)N=C1C(=O)C2(C)CCC1C2(C)C (stereo not given)"
  Value Observed: "> 100 µM"
- Compound: "Cn1cc(-c2csc(-c3ccc(Cl)cc3)n2)c2cccnc21"
  Value Observed: "32.4 µM"
- Compound: "COC(=O)c1c(C(=O)O)c(-c2ccccc2)c(-c2ccccc2)c(-c2ccccc2)c1-c1ccccc1"
  Value Observed: "> 100 µM"
- Compound: "CC(C)(C)OC(=O)NCC(c1c[nH]c2ccccc12)c1c[nH]c2ccccc12"
  Value Observed: "32 µM"
- Compound: "CC(C)(C)c1cc(C(C)(C)C)c(SC2OC(CO)C(O)C(O)C2O)c(O)c1O (stereo not given)"
  Value Observed: "30.4 µM"
- Compound: "O=c1cc(-c2ccccc2)oc2cc(OCCCCCCCCCCOc3ccc4c(=O)cc(-c5ccccc5)oc4c3)ccc12"
  Value Observed: "> 100 µM"
- Compound: "N#Cc1nc(CN2C(=O)c3ccccc3C2=O)oc1N"
  Value Observed: "> 100 µM"
- Compound: "Cc1c2oc(=O)c(C#N)cc2c2ccccn12"
  Value Observed: "> 100 µM"
- Compound: "Cc1nc(C(=O)OCc2ccccc2)cc(OCc2ccccc2)c1C"
  Value Observed: "50.9 µM"
- Compound: "COc1ccc(/C=C/C(=O)c2cc(CN(C)C)c(O)c(CN(C)C)c2)cc1"
  Value Observed: "> 100 µM"
- Compound: "CSCCC(NC(=O)C(Cc1c[nH]c2ccccc12)NC(=O)CCNC(=O)OC(C)(C)C)C(=O)NC(CC(=O)O)C(=O)NC(Cc1ccccc1)C(N)=O (stereo not given)"
  Value Observed: "> 50 µM"
- Compound: "C=CCN1C(=O)C[C@H](Cc2ccccc2)NC(=O)C[C@H](Cc2ccccc2)N(CC=C)C(=O)C[C@H](Cc2ccccc2)NC(=O)C[C@@H]1Cc1ccccc1"
  Value Observed: "> 100 µM"
- Compound: "N#C/C(=C/C=C/c1cccc(Cl)c1)S(=O)c1ccccc1 (stereo not given)"
  Value Observed: "1.01 µM"
- Compound: "c1ccc(N2CCN(CCN3CCc4c([nH]c5ccccc45)C3c3cccnc3)CC2)cc1 (stereo not given)"
  Value Observed: "> 100 µM"
- Compound: "CCOC(=O)/C=C/c1ccc([N+](=O)[O-])o1"
  Value Observed: "4.67 µM"
- Compound: "CCOC1=C/C(=N\\Nc2ccc([N+](=O)[O-])cc2)CCC1"
  Value Observed: "> 100 µM"
- Compound: "COc1ccc(C2=NNC(c3sc(Cl)nc3Cl)C2)cc1 (stereo not given)"
  Value Observed: "> 100 µM"
- Compound: "O=C(NCCCN1CCN(CCCNC(=O)Nc2cc(Cl)ccc2Cl)CC1)Nc1cc(Cl)ccc1Cl"
  Value Observed: "> 100 µM"
- Compound: "Cc1cc2ccccc2oc(=O)/c1=N\\Nc1ccccc1"
  Value Observed: "97 µM"
- Compound: "CCOP(=O)(OCC)C(c1ccccc1)N(C(=O)NC(F)(F)F)c1ccc(C)cc1 (stereo not given)"
  Value Observed: "> 100 µM"
- Compound: "C[C@@H]1C[C@@H]2OC(=O)[C@]3(C)[C@H]2[C@@H](OC3(C)O)[C@]2(C)C(=O)C=C[C@@H]12 (stereo not given in full)"
  Value Observed: "> 100 µM"
- Compound: "Cc1cc(C)nc(NC(=O)COc2ccc(Cl)cc2)c1"
  Value Observed: "> 100 µM"
- Compound: "C=C(CN1CCc2ccccc2C1)c1ccc(CCCC(=O)Nc2ccccc2N)cc1"
  Value Observed: "28.2 µM"
- Compound: "Cc1c2cc[n+](C)cc2c(C)c2c1[nH]c1ccc(OCC(F)(F)F)cc12"
  Value Observed: "> 100 µM"
- Compound: "CCOc1ccc2cc(-c3nn(CC4CCN(C)CC4)c4ncnc(N)c34)ccc2c1"
  Value Observed: "29.7 µM"
- Compound: "Cc1cc(O)c2c(c1)OC1(C)CCC3C(C)(C)CCCC34COC2C14 (stereo not given)"
  Value Observed: "30.7 µM"
- Compound: "C[C@]12CC[C@H](OC(=O)Nc3ccccc3)CC1=CC[C@@H]1C2CC[C@]2(C)/C(=N/OC(=O)Nc3ccccc3)CCC12 (stereo not given in full)"
  Value Observed: "> 100 µM"
- Compound: "CC(=O)N1CCOC12N=NC(C)(C)O2 (stereo not given)"
  Value Observed: "> 100 µM"
- Compound: "COC(=O)C1CCC(=O)NCCCCC(NC(=O)C(N)CC(=O)O)C(=O)N1 (stereo not drawn) (H-Asp-Lys-Glu-OMe; lactam 2-3; configuration not given here)"
  Value Observed: "> 100 µM"
